procedure_text: Prevention of PAH in mice with conditional deletion of BMPRII in ECs, 3 weeks of hypoxia
Assay type: in vivo, mouse
condition_parameters: mouse, serum, 0.05 mg/kg/day; mice, 0.05 mg/kg/d; read-out: serum levels
measurement_label: concentration at 3 weeks (ng/mL)
Note: unit ng/mL is implicit; provide only the numeric part.

Which concentration at 3 weeks is reported for this compound? C=CC[C@@H]1/C=C(\C)C[C@H](C)C[C@H](OC)[C@H]2O[C@@](O)(C(=O)C(=O)N3CCCC[C@H]3C(=O)O[C@H](/C(C)=C/[C@@H]3CC[C@@H](O)[C@H](OC)C3)[C@H](C)[C@@H](O)CC1=O)[C@H](C)C[C@@H]2OC [FK-506]
0.2
